Values were extracted from patent US20240182482A1.

test system: MIA PaCa-2 cells; assay: In-vitro anti-proliferative activity on MIA PaCa-2 cells (intracellular ATP content); assay type: cell-based; conditions: Homo sapiens, MIA PaCa-2, 72 h, compound alone, 72 h after dosing, read-out: IC50 Without GMC, anti-proliferative activity on MIA PaCa-2 cells
Each entry below carries its recorded IC50.
Provide the reading as a plain figure in nM.

Below are worked cases with known answers.
COMPOUND	QUANTITATIVE_READOUT
CN1Cc2cc(Nc3ncc4c(F)cn(-c5cccc(N=S6(=O)CCCC6)n5)c4n3)cc3c2C(CCC3)C1 (stereo not shown)	115
CN1Cc2cc(Nc3ncc4c(F)cn(-c5ccc(F)c(N=S(C)(C)=O)n5)c4n3)cc3c2C(CCC3)C1 (stereo not shown)	155
CN1Cc2cc(Nc3ncc4c(F)cn(-c5cccc(P(C)(C)=O)n5)c4n3)cc3c2C(CCC3)C1 (stereo not shown)	331

Consider now this further compound.
Requested field: IC50. Item: CN1Cc2cc(Nc3ncc4c(F)cn(-c5ccc(Cl)c(N=S(C)(C)=O)n5)c4n3)cc3c2C(CCC3)C1 (stereo not shown)
184

====

test system: MIA PaCa-2 cells; assay: In-vitro anti-proliferative activity on MIA PaCa-2 cells (intracellular ATP content); assay type: cell-based; settings: Homo sapiens, MIA PaCa-2, 72 h, compound alone, 72 h after dosing, read-out: IC50 Without GMC, anti-proliferative activity on MIA PaCa-2 cells
# maps each entry to its pIC50
The scale used: pIC50 is minus the common logarithm of the concentration in molar units.

Use the examples below as a reference point.
COMPOUND	TEST_SYSTEM	pIC50
[2H]C([2H])([2H])N1Cc2cc(Nc3ncc4c(F)cn(-c5cccc(N=S(C)(C)=O)n5)c4n3)cc3c2[C@H](CCC3)C1 [Compound 67]	MIA PaCa-2 cells	7.31
CN1Cc2cc(Nc3ncc4c(F)cn(-c5cccc(N=S(C)(C)=O)n5)c4n3)cc3c2[C@H](CCC3)C1 [Compound 66]	MIA PaCa-2 cells	7.55
CN1Cc2cc(Nc3ncc4c(F)cn(-c5cccc(N=S6(=O)CCC6)n5)c4n3)cc3c2C(CCC3)C1 (stereo not shown) [Compound 3]	MIA PaCa-2 cells	6.89

Moving on to another compound below.
What measured pIC50 goes with CCN1Cc2cc(Nc3ncc4c(C)cn(-c5cccc(N=S(C)(C)=O)n5)c4n3)cc3c2C(CCC3)C1 (stereo not shown) [Compound 28] ?
6.76

====

For Wee-1 kinase (Homo sapiens (Human)), measured IC50 is reported for the entries below.

Below, each entry is followed by its recorded IC50 result.
COMPOUND	TEST_SYSTEM	IC50
CCS(=O)(CC)=Nc1cccc(-n2cc(F)c3cnc(Nc4cc5c6c(c4)CN(C)CC6CCC5)nc32)n1 (stereo not drawn)	Wee-1 kinase (Homo sapiens (Human))	1.96 nM
CN1Cc2cc(Nc3ncc4c(F)cn(-c5ccc(F)c(N=S(C)(C)=O)n5)c4n3)cc3c2[C@H](CCC3)C1	Wee-1 kinase (Homo sapiens (Human))	1.56 nM

For Wee-1 kinase (Homo sapiens (Human)), provide IC50 of CN1Cc2cc(Nc3ncc4c(F)cn(-c5ccc(F)c(N=S(C)(C)=O)n5)c4n3)cc3c2C(CCC3)C1 (stereo not drawn) [Compound 23] please.
2.05 nM

Which measured IC50 belongs to "[2H]C([2H])([2H])S(=O)(=Nc1nc(-n2cc(F)c3cnc(Nc4cc5c6c(c4)CN(C)C[C@H]6CCC5)nc32)ccc1F)C([2H])([2H])[2H]" , tested on Wee-1 kinase (Homo sapiens (Human))?
1.84 nM

Identify the measured IC50 of [2H]C([2H])([2H])S(=O)(=Nc1cccc(-n2cc(F)c3cnc(Nc4cc5c6c(c4)CN(C)CC6CCC5)nc32)n1)C([2H])([2H])[2H] (stereo not drawn) for Wee-1 kinase (Homo sapiens (Human)).
1.67 nM

// fetch Wee-1 kinase (Homo sapiens (Human)) IC50 for CN1Cc2cc(Nc3ncc4c(F)cn(-c5cccc(N=S6(=O)CCOCC6)n5)c4n3)cc3c2C(CCC3)C1 (stereo not drawn)
2.79 nM

====

Here's a batch of compounds along with measured pIC50 for Wee-1 kinase (Homo sapiens (Human), UniProt P30291).
Scale note: pIC50 = -log10(concentration in M).

Solved cases below.
COMPOUND	pIC50
CCN1Cc2cc(Nc3ncc4c(C)cn(-c5cccc(N=S(C)(C)=O)n5)c4n3)cc3c2C(CCC3)C1 (stereo not drawn)	8.63
[2H]C([2H])([2H])S(=O)(=Nc1cccc(-n2cc(F)c3cnc(Nc4cc5c6c(c4)CN(C)C[C@H]6CCC5)nc32)n1)C([2H])([2H])[2H]	8.81

I am curious: what pIC50 value has been reported for "[2H]C([2H])([2H])N1Cc2cc(Nc3ncc4c(F)cn(-c5cccc(N=S(C)(C)=O)n5)c4n3)cc3c2[C@H](CCC3)C1" ?
8.73

I'd like to know its pIC50. The compound in question is CN1Cc2cc(Nc3ncc4c(F)cn(-c5cccc(N=S(C)(C)=O)n5)c4n3)cc3c2C(CCC3)C1 (stereo not drawn) [Compound 63]
8.46

What value of pIC50 has been recorded for this entry: "[2H]C([2H])([2H])N1Cc2cc(Nc3ncc4c(F)cn(-c5ccc(F)c(N=S(C)(C)=O)n5)c4n3)cc3c2[C@H](CCC3)C1"
8.71

====

test system: MIA PaCa-2 cells; assay: In-vitro anti-proliferative activity on MIA PaCa-2 cells (intracellular ATP content); type: cell-based; conditions: Homo sapiens, MIA PaCa-2, 72 h, compound alone, 72 h after dosing, read-out: IC50 Without GMC, anti-proliferative activity on MIA PaCa-2 cells
ASSAY_ENDPOINT: IC50 (nM)
Supply the numeric figure in nM, leaving out any unit text.

COMPOUND	QUANTITATIVE_READOUT
CN1Cc2cc(Nc3ncc4c(F)cn(-c5ccc(F)c(N=S(C)(C)=O)n5)c4n3)cc3c2[C@H](CCC3)C1	78

Item under review: C=CCn1c(=O)c2cnc(Nc3ccc(N4CCN(C)CC4)cc3)nc2n1-c1cccc(C(C)(C)O)n1 [MK-1775, reference compound] . Reported IC50?
904

GET /values?readout=IC50&item= "[2H]C([2H])([2H])S(=O)(=Nc1nc(-n2cc(F)c3cnc(Nc4cc5c6c(c4)CN(C)C[C@H]6CCC5)nc32)ccc1F)C([2H])([2H])[2H]"
89

====

Reported IC50, Wee-1 kinase (Homo sapiens (Human), UniProt P30291).
Numeric answer only, unit nM assumed.

Give IC50 (Wee-1 kinase (Homo sapiens (Human), UniProt P30291)) of the following compound: CN1Cc2cc(Nc3ncc4c(F)cn(-c5cccc(N=S6(=O)CCCC6)n5)c4n3)cc3c2C(CCC3)C1 (centres unmarked)
2.47

====

test system: MIA PaCa-2 cells; test: In-vitro anti-proliferative activity in combination with gemcitabine (GMC) on MIA PaCa-2 cells; assay type: cell-based; details: Homo sapiens, MIA PaCa-2, 72 h, read-out: IC50 GMC (20 nM), anti-proliferative activity on MIA PaCa-2 cells, in combination with 20 nM gemcitabine, 72 h after dosing, ATP content
Overview of reported IC50 across a group of compounds:
Kindly provide the numeric value in nM only, without the unit symbol.

COMPOUND	TEST_SYSTEM	UNITS_OF_MEASURE	IC50
[2H]C([2H])([2H])S(=O)(=Nc1cccc(-n2cc(F)c3cnc(Nc4cc5c6c(c4)CN(C)CC6CCC5)nc32)n1)C([2H])([2H])[2H] (stereo not shown)	MIA PaCa-2 cells	nM	1.7

Any idea what IC50 was measured for CN1Cc2cc(Nc3ncc4c(F)cn(-c5cccc(N=S(C)(C)=O)n5)c4n3)cc3c2C(CCC3)C1 (stereo not shown) ?
2.3

Bench note: what IC50 did "CN1Cc2cc(Nc3ncc4c(F)cn(-c5ccc(F)c(N=S(C)(C)=O)n5)c4n3)cc3c2[C@H](CCC3)C1" show?
1.4

What does the data say about its IC50? Entry: CCS(=O)(CC)=Nc1cccc(-n2cc(F)c3cnc(Nc4cc5c6c(c4)CN(C)CC6CCC5)nc32)n1 (stereo not shown)
2.4

Which IC50 value belongs to C=CCn1c(=O)c2cnc(Nc3ccc(N4CCN(C)CC4)cc3)nc2n1-c1cccc(C(C)(C)O)n1 [MK-1775, reference compound] ?
24.2

Name the recorded IC50 for CN1Cc2cc(Nc3ncc4c(F)cn(-c5cccc(N=S6(=O)CCCC6)n5)c4n3)cc3c2C(CCC3)C1 (stereo not shown) .
2.1

Fill in: IC50 of CN1Cc2cc(Nc3ncc4c(F)cn(-c5cccc(N=S6(=O)CCC6)n5)c4n3)cc3c2C(CCC3)C1 (stereo not shown) is ___
2.3

Give the measured IC50 of CN1Cc2cc(Nc3ncc4c(F)cn(-c5ccc(Cl)c(N=S(C)(C)=O)n5)c4n3)cc3c2C(CCC3)C1 (stereo not shown) .
1.6
